target: Paired box protein Pax-8 (Homo sapiens); test: inhibitors of PAX8-driven TPO luciferase reporter, dose response, RMG-I cells, cherry-pick (AID 687027); type: functional, cell-based;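 note: luciferase reporter driven by Pax8 target thyroperoxidase promoter measured by SteadyGlo luminescence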
Sequence (Q06710 whole entry): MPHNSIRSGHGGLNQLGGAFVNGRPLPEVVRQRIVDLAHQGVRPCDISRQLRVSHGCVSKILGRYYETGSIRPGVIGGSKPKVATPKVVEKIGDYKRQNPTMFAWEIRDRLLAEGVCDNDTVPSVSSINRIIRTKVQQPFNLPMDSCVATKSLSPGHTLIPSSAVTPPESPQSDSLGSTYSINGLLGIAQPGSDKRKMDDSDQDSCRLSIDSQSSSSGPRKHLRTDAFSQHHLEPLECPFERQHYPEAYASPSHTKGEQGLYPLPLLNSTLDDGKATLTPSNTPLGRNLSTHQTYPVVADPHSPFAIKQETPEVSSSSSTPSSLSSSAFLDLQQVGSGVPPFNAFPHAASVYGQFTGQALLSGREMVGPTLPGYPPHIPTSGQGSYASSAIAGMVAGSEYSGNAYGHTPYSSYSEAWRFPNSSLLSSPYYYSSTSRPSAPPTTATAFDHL
The source made the active and inactive calls.
property-measured: AC50

>>> result("COc1ccccc1-c1ccc([C@@H]2[C@@H]3CN(S(=O)(=O)c4ccc(-c5ccccc5)cc4)C[C@H]2N3)cc1")
"23.3 µM (active)"
>>> result("C[C@@H]1CCCCO[C@@H](CN(C)Cc2ccc(C(F)(F)F)cc2)[C@H](C)CN([C@H](C)CO)C(=O)c2cc(NC(=O)Cc3ccccc3)ccc2O1")
"4.62 µM (active)"
>>> result("C[C@H](CO)N1C[C@H](C)[C@H](CN(C)S(=O)(=O)c2ccc(F)cc2)OCCCC[C@H](C)Oc2ccc(NC(=O)Nc3ccc(F)cc3)cc2C1=O")
"7.09 µM (active)"
>>> result("O=C(Nc1cccc(C2=NCCN2)c1)Nc1cccc(C2=NCCN2)c1 [IMIDOCARB DIPROPIONATE]")
"0.879 µM (active)"

---

target: FAD-linked sulfhydryl oxidase ALR (Homo sapiens, UniProt P55789); experiment: inhibitors of human ALR sulfhydryl oxidase, dose response, biochemical, H2O2 detection, luminescence, cherry-pick (AID 493248)
Sequence (P55789 whole entry): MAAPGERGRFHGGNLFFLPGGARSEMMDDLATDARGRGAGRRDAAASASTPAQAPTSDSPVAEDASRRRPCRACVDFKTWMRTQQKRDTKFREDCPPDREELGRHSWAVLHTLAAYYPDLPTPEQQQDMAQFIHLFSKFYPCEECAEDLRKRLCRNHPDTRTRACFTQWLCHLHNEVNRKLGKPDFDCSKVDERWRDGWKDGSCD
Calls of active or inactive are those of the source.
Parameter AC50: see the listing below.
property-measured: AC50

>>> result("CC1(C)CC(Nc2ccc(Nc3ccccc3)cc2)CC(C)(C)N1")
"270 nM (active)"
>>> result("COc1cccc(/C=N/NC(=O)NC2CCCCC2)c1O")
"3710 nM (active)"
>>> result("COc1ccc(C2=CSC3=NNC4(CCCCC4)NN23)cc1")
"1420 nM (active)"
>>> result("COc1cc(CNc2ccc(C)c(C)c2)cc(OC)c1OC")
"9130 nM (active)"
>>> result("N#C/C(=N\\Nc1c(Cl)cccc1Cl)C(=O)NN")
"2370 nM (active)"
>>> result("Cc1nc(SCc2ccc(C(=O)O)cc2)nc2c1CCCC2")
"3290 nM (active)"
>>> result("CCn1c(=O)n(CC)c2cc(N)ccc21")
"754 nM (active)"
>>> result("CCN1C(=O)c2cccc3c(S(=O)(=O)Nc4ccc(O)c(C(=O)O)c4)ccc1c23")
"1550 nM (active)"
>>> result("O=C(O)c1ccc(S(=O)(=O)Nc2ccc(O)c(Sc3nc4ccccc4s3)c2)cc1")
"236 nM (active)"
>>> result("CC(C)(C)c1ccc(Oc2ccc(NC(=O)CCCC(=O)O)cn2)cc1")
"1490 nM (active)"
>>> result("C/C(=N\\NC(=O)c1ccc(N/N=C(\\C)c2ccncc2)cc1)c1ccncc1")
"107 nM (active)"
>>> result("COc1cc(/C=N/NC(=O)c2cc(-c3ccc4c(c3)OCO4)[nH]n2)ccc1O")
"408 nM (active)"
>>> result("CC(=O)Nc1ccc(C2=NN(C)/C(=N/Cc3ccccc3)SC2)cc1")
"3900 nM (active)"
>>> result("CC(=O)Oc1cc2oc(=O)cc(C)c2cc1Cl")
"2620 nM (active)"
>>> result("C=CCN1C(=O)NC(=O)/C(=C\\c2ccc(-c3ccccc3[N+](=O)[O-])o2)C1=O")
"507 nM (active)"
>>> result("COc1ccc(NC(=O)CC2C(=O)Nc3ccccc3N2CC(=O)N2CCCC2)cc1 (centres undefined)")
"6650 nM (active)"
>>> result("O=C(CN1CCCc2ccccc21)N/N=C/c1ccc(O)cc1O")
"2350 nM (active)"
>>> result("COc1cc(OC)cc(C(=O)N2CCN=C2SCc2cccnc2)c1")
"154 nM (active)"
>>> result("CN(C)P(=O)(C(Cl)=C(N1CCCCC1)N1CCCCC1)N(C)C")
"41100 nM (active)"

---

molecular target: DNA (cytosine-5)-methyltransferase 1 (Homo sapiens, UniProt P26358); assay: DNMT1 methyltransferase inhibitors, confirmation, biochemical, fluorescent molecular beacon (AID 602386); format: functional
Sequence (P26358 whole entry): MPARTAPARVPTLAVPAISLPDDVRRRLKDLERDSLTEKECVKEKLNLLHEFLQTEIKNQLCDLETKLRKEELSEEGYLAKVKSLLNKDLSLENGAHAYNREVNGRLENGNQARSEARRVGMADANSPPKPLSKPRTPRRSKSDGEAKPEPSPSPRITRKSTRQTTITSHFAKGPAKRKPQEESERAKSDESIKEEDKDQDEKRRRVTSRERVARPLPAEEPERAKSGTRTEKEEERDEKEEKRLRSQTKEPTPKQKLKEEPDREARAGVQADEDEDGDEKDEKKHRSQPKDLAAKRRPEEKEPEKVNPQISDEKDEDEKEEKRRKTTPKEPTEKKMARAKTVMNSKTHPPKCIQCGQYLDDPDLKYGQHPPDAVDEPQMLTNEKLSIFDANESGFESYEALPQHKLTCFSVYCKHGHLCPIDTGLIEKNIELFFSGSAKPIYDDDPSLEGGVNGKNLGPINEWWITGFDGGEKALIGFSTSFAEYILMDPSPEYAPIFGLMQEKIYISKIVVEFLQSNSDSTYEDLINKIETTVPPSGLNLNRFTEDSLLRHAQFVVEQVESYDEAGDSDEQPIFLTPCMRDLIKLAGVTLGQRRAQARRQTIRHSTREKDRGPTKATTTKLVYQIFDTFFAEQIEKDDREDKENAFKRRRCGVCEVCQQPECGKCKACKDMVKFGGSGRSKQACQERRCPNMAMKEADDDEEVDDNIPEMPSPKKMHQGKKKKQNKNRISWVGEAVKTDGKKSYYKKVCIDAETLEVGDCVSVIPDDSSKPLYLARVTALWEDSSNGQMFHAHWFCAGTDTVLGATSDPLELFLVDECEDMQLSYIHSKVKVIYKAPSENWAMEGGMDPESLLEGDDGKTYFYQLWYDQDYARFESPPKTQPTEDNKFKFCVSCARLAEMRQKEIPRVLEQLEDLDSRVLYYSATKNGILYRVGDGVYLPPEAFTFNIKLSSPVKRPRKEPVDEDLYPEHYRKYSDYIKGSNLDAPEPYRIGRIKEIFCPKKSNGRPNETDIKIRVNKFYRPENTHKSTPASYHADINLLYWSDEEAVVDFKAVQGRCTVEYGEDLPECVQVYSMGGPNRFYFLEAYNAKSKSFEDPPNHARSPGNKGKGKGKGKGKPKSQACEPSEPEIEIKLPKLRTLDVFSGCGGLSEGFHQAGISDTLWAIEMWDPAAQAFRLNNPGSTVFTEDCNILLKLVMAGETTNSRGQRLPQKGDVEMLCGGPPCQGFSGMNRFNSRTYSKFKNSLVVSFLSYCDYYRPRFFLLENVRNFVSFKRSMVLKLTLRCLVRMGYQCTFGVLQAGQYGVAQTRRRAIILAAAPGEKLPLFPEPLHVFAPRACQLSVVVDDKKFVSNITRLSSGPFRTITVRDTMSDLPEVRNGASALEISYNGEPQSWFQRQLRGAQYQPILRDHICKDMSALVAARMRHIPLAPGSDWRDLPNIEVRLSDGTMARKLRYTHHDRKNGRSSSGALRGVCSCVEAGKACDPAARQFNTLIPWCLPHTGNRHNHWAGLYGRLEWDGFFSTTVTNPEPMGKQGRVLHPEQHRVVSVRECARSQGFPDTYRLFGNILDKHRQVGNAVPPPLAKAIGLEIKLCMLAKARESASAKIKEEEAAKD
Calls of active or inactive are those of the source.
Outcomes: true (1) = active, false (0) = inactive

>>> classification("Cc1cc[n+](CC(=O)c2cccc([N+](=O)[O-])c2)c2ccccc12")
"false (0)"
>>> classification("O=C(c1ccc(=O)oc1)N1CCOCC1")
"true (1)"
>>> classification("CSc1ccc(C=NNc2ccc(S(=O)(=O)Nc3ccccc3C(=O)O)cc2[N+](=O)[O-])cc1")
"true (1)"
>>> classification("Cc1ccc(NC(=O)CN2C(=O)S/C(=C\\c3cccn3-c3cccc(C(=O)O)c3)C2=O)c(C)c1")
"true (1)"
>>> classification("O=C(O)c1ccc(-n2cccc2/C=C2/NC(=O)N(c3ccccc3)C2=O)cc1")
"true (1)"

---

biological target: Carboxy-terminal domain RNA polymerase II polypeptide A small phosphatase 1 (Homo sapiens, UniProt Q9GZU7); assay: inhibitors of CTDSP1, concentration-response testing, biochemical assay, absorbance-based, actives from ultra-high-throughput screening (AID 540297); assay type: functional
Sequence (Q9GZU7 whole entry, the tested form may be a part): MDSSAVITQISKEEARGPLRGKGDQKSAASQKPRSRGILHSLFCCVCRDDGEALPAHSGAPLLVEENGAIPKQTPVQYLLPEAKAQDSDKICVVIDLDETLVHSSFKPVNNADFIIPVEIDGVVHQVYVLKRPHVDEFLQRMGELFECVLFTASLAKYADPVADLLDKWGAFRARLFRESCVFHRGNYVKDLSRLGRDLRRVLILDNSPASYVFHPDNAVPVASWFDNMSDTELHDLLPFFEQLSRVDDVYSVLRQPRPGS
Active and inactive are the calls of the source.
property-measured: IC50

>>> result("O=C(NC1CC1)C1CCN(S(=O)(=O)c2cc([N+](=O)[O-])ccc2Cl)CC1")
"2.49 µM (active)"
>>> result("CC(C)OCCOc1ccc2oc(-c3ccco3)cc(=O)c2c1")
"21.7 µM (active)"
>>> result("O=C(Cc1cccs1)Nc1ccc(S(=O)(=O)N2CCCCC2)cc1")
"4.95 µM (active)"
>>> result("Cc1cc(C=O)c(C)n1-c1cccc(C(=O)O)c1")
"6.32 µM (active)"
>>> result("O=C1N=C(Nc2cccnc2)S/C1=C/c1ccc(F)cc1")
"18.4 µM (active)"
>>> result("CCOC(=O)CC1(C)OCC(C[N+]2(C)CCCCC2)O1 (stereo not given)")
"5.57 µM (active)"
>>> result("C=C(C)C(=O)N1CC2(CC(c3cccc(NC(=O)/C=C\\C=C/C)c3)=NO2)C[C@H]1C(N)=O (stereo not given in full)")
"9.08 µM (active)"
>>> result("NS(=O)(=O)c1ccc(NC(=O)C2Cc3ccccc3CN2C(=O)c2ccco2)cc1 (stereo not given)")
"6.06 µM (active)"
>>> result("COc1ccc(OC)c(NC(=O)COC(=O)c2cc3c(s2)CCC3)c1")
"2.39 µM (active)"
>>> result("C=CC1=C(C(=O)O)N2C(=O)[C@@H](NC(=O)/C(=N\\O)c3csc(N)n3)[C@H]2SC1 (stereo in doubt)")
"4.48 µM (active)"

---

biological target: E3 ubiquitin-protein ligase XIAP (Homo sapiens, UniProt P98170); experiment: XIAP antagonists, biochemical, IAP family, fluorescence polarization (AID 1018); format: functional
Sequence (P98170 whole entry): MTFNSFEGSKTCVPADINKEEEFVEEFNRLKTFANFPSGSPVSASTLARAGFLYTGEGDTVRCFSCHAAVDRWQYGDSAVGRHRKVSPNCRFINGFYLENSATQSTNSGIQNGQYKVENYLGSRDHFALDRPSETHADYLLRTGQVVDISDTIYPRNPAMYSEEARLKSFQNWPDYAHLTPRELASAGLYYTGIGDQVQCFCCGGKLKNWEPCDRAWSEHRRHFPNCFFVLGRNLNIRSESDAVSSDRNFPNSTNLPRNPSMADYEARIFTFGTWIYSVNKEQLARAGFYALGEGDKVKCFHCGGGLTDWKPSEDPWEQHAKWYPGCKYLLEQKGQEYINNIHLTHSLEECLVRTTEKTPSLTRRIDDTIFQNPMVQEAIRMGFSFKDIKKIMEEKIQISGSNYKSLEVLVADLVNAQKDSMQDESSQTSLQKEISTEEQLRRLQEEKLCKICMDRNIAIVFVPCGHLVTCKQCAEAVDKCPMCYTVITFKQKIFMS
Parameter IC50: see the listing below.
property-measured: IC50

>>> result("OCC1(CCc2ccccc2)CCN(Cc2ccc(OC(F)F)cc2)CC1")
"> 100 µM (not active)"
>>> result("CCOC(=O)N/N=C/c1ccc(Oc2ccccc2)cc1")
"> 100 µM (not active)"
>>> result("CCn1c(CCNC(=O)c2ccc(OC)cc2)nnc1SCc1ccc(Cl)c(Cl)c1")
"> 100 µM (not active)"
>>> result("CCCCSc1nnc2c(n1)OC(C(=O)c1ccccc1)Nc1ccccc1-2 (centres undefined)")
"> 50 µM (not active)"

---

experiment: cytotoxicity toward DRD oncogenic fibroblasts, dose response, cell-based, non-viral oncogenic, luminescence (AID 1934); assay type: functional; conditions: Homo sapiens
The source made the active and inactive calls.
Parameter EC50: see the listing below.
property-measured: EC50

>>> result("C[C@@H]1C[C@@H]2O[C@H]2/C=C\\C=C\\C(=O)Cc2c(Cl)c(O)cc(O)c2C(=O)O1")
"2.08 µM (active)"
>>> result("O=C(Nc1ccc(-c2nc3ccccc3[nH]2)cc1)C1CCCO1 (stereo unspecified)")
"9.19 µM (inconclusive)"
>>> result("O=C(Nc1ccc(Oc2ccccc2)nc1)C1CCCCN1Cc1ccco1 (stereo unspecified)")
"17.3 µM (inconclusive)"
>>> result("CC1=Nc2cc(C(=O)NCCCOC(C)C)ccc2Sc2ccccc21")
"18.6 µM (active)"
>>> result("Cc1nc(NC(=O)c2ccco2)sc1C(=O)O")
"10.3 µM (active)"
>>> result("COc1ccc(CCNc2nnc(Sc3nnnn3-c3ccccc3)s2)cc1OC")
"2.38 µM (active)"

---

target: Streptokinase A (Streptococcus pyogenes serotype M1, UniProt P10520); test: S. pyogenes streptokinase expression inhibitors, potency, dose response, plasminogen activation absorbance, OD405 (AID 1914); assay type: functional, Streptococcus pyogenes M1 GAS;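 note: secreted streptokinase activity via plasminogen activation per viability signal from cell pellet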
Sequence (P10520 whole entry): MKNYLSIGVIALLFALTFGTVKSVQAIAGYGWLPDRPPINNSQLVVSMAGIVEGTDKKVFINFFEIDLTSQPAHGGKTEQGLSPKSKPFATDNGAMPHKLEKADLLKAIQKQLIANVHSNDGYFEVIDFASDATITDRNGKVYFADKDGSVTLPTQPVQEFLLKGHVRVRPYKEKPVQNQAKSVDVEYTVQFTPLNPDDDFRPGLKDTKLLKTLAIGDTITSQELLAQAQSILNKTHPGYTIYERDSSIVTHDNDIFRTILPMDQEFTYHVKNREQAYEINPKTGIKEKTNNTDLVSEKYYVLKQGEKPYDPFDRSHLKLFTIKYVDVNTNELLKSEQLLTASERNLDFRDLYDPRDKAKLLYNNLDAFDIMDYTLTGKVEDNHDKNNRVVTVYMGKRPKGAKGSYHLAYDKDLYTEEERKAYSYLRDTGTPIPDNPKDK
Activity calls are given as the source filed them.
Parameter EC50: see the listing below.
property-measured: EC50

>>> result("FC(F)(F)c1cccc(Nc2nc(N3CCCC3)nc(N3CCCC3)n2)c1")
"17.5 µM (inconclusive)"
>>> result("Cc1ccc2c(c1)C(=O)CC1(CCC(C(C)(C)C)CC1)O2 (stereo not given)")
"12.6 µM (active)"
>>> result("Cc1ccsc1C(=O)N(c1nc2ccccc2s1)c1c(C)cccc1C")
"7.09 µM (inconclusive)"
>>> result("CCOc1ccc2c(c1)c1nnc(SCC(=O)N3CCC(C)CC3)nc1n2C")
"> 150 µM (not active)"
>>> result("CCN1/C(=C/c2ccc3cc(C)ccc3[n+]2CC)Sc2cc(C)c(C)cc21")
"> 150 µM (not active)"
>>> result("CCC(=O)NC(c1ccc(OC)c(OC)c1)c1cc(Cl)c2cccnc2c1O (stereo not given)")
"> 150 µM (not active)"
>>> result("CCOC(=O)c1cnc(-n2nc(C)cc2C)nc1N(CC)CC")
"> 150 µM (not active)"
>>> result("CCCn1c(NC(=O)C23CC4CC(CC(O)(C4)C2)C3)nc2ccccc21")
"> 150 µM (not active)"
>>> result("CC[C@@H]1CC=C[C@H]2[C@H]1C(=O)N(Cc1ccccc1)[C@H]2c1ccc(OC)c(Cl)c1")
"4.05 µM (active)"
>>> result("Cc1nc2c(C)cccn2c(=O)c1NC(=O)c1ccc2c(c1)OCO2")
"> 150 µM (not active)"

Cited source for all entries: ChEMBL document CHEMBL1201862
